B1: LINE1-full (parent)
chain: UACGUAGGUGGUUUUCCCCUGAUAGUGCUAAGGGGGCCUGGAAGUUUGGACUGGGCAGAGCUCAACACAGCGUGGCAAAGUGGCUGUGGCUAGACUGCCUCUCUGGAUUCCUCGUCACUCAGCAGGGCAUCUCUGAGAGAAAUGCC

Variants of: B1
MEASUREMENT DESCRIPTION: self-cleavage, relative activity (ratio to wild type); higher = more cleavage; in vitro, sequencing; the parent is a self-cleaving ribozyme
Please mark 1.0 if the recorded self-cleavage is equal to or greater than 0.2, and 0.0 if it falls below.

Recorded results for 5 variants are shown here.
[[record]]
mutation_list = "U62C A94U"
category_label = 0.0

[[record]]
mutation_list = "U14C A42G"
category_label = 1.0

[[record]]
mutation_list = "A30U A69U"
category_label = 0.0

[[record]]
mutation_list = "A22G C113U"
category_label = 1.0

[[record]]
mutation_list = "A65G U87C"
category_label = 0.0


Query: I'd appreciate it if you could say whether U46C C61U has self-cleavage at least equal to 0.2.
Reply: 0.0

Query: I'd appreciate it if you could say whether U15C U119C has self-cleavage at least equal to 0.2.
Reply: 1.0
